Values were extracted from patent US20190144550A1.

# Kd annotations
target: T1, Monomeric 8-histidine tagged human EGFRvIII extracellular domain (human, UniProt P00533 298-645); assay: SPR, captured by anti-mouse Fc, 37 C
T1 construct: Analyte in all SPR assays; not shown: 8-histidine tag

- BINDER: "49B11 (antibody, V domains shown, Hybridoma supernatant (AlivaMab mouse); captured/detected via mouse Fc) VH: QVTLKESGPVLVKPTETLTLTCTVSGFSLSNVRMGVSWIRQPPGKALEWFAHIFSSDEKSIRRSLRSRLTLSKDTSKSQVVLTMTNMDPVDTATYYCARDSSNYEGYFDYWGQGTLVTVSS VL: EMEVTQSPATLSVSPGERATLSCRASQNIGSDLAWYQQQSGQAPRLLISGASTRATGVPTRFSGSGSGTDFTLTITSLQSEDFAVYYCQQYNDWPFTFGPGTKVDIK"
  Kd [nM]: 9.1
- BINDER: "20G5 (antibody, V domains shown, Hybridoma supernatant (AlivaMab mouse); captured/detected via mouse Fc) VH: EVQLVESGGDLVKPGGSLRLSCAASGFTFTNAWMSWVRQAPGKGLEWVGRIKSKIDGGTTDYAAPVKGRFIISRDDSKNTLSLQMNSLKTEDTAMYYCTTAPGGPFDYWGQGSLVTVSS VL: DIVLTQSPLSLPVTPGEPASISCRSSQSLLYSDRRNYLDWFLQKPGQSPHLLIYLGSYRASGVPDRFSGSGSGTDFTLKISRVEAEDVGVYYCMQALQIPITFGQGTRLEIK"
  Kd [nM]: 231
- BINDER: "21E11 (antibody, V domains shown, Hybridoma supernatant (AlivaMab mouse); captured/detected via mouse Fc) VH: QVTLKESGPVLVKPTETLTLTCTVSGFSLSNVRMGVSWIRQPPGKALEWFAHIFSSDEKSIRRSLRSRLTLSKDTSKSQVVLTMTNMDPVDTATYYCARDSSNYEGYFDFWGQGTLVTVSS VL: DMVVTQSPATLSVSPGERATLSCRASQSVGSDLAWYQQPPGQSPRLLIYGASTRATGVPARFSGSGSGTDFTLTITSLESEDFAVYYCQQYNDWPFTFGPGTKVDIK"
  Kd [nM]: 9.5
- BINDER: "20E12 (antibody, V domains shown, Hybridoma supernatant (AlivaMab mouse); captured/detected via mouse Fc) VH: EVNLVESGGGLVKPGGSLRLSCEASGFTFSYAWMSWVRQAPGKGLEWVGRIKSIADGGATDYAAPVRNRFTISRDDSRNTLYLEMHSLKTEDTAVYYCTTIPGNDAFDMWGQGTMVTVSS VL: DIVLTQSPLSLSVTPGEPASISCRSSQSLLYSNGKNYLDWFLHKPGQSPQLLIYLGSNRASGVPDRFSGSGSGIDFILKISRVEAEDVGVYYCMQAQQTPITFGQGTRLEIK"
  Kd [nM]: 353
- BINDER: "30D8 (antibody, V domains shown, Hybridoma supernatant (AlivaMab mouse); captured/detected via mouse Fc) VH: EVQLVESGGGLVKPGGSLRLSCEASGFTFSDAWMSWVRQAPGKGLEWVGRIKSKTDGGTTDYVVPLNGRFIISRDDSRNTLYLQLNNLKTEDTAVYYCTTVPGSYGYWGQGTLVTVSS VL: DIVMTQSPLSLPVTPGEPASISCRSSQSLLHNKRNNYLDWFLQKPGQSPQLLIYLASNRASGVPDRFSGGGSGTDFTLKISRVEAEDVGVYYCMQAQQTPITFGQGTRLEIK"
  Kd [nM]: 172
